- testTarget: T1, full length human tau protein 2N4R (hT40) (human, UniProt P10636 1-758)
- T1 construct: recombinant; also called T441
- T1 sequence (P10636 other isoform, or with tags, fused parts or gaps limits assumed): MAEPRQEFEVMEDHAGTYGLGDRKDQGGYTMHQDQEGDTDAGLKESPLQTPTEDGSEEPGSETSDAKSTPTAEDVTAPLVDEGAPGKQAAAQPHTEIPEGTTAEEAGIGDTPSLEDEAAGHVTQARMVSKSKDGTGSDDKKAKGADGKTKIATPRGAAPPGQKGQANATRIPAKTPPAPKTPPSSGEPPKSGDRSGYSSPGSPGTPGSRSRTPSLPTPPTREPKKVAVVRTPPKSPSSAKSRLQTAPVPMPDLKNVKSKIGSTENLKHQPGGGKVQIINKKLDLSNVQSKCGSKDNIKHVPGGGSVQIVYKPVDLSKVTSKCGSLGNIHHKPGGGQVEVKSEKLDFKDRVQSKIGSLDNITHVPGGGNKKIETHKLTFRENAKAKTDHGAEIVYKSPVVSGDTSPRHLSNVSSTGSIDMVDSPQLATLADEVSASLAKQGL
- protocolDescription: SPR, scAb captured, tau analyte
observedProperty: pKd
pKd is defined as minus the log10 of a concentration measured in mol/L.

Entry 3bF4 scAb (scFv, not shown: small tags and cut ends, scAb) scFv: QVQLQESGPSLVKPSQTLSLTCTVSGFSLSSNGVGWVRQAPGKVPEWLGDISSVGKKYANPALKSRLSFTRDTSKSQVSLSLSSVTTEDTAVYYCVKCRDGGVTYGYDIDYWGPGLLVTVSSEGKSSGASGESKVDDQAVLTQPSSVSKSTGQTVSITCSGSSSNVGLRNYVTWFQQVPGSAPKLLIYGATSRASGIPDRFSGSRSGNTATLIISSLQAEDEADYYCASADTNDGGVFGSGTRLTVLG — recorded pKd = 6.85

Entry S1G2 scAb (scFv, not shown: small tags and cut ends, scAb) scFv: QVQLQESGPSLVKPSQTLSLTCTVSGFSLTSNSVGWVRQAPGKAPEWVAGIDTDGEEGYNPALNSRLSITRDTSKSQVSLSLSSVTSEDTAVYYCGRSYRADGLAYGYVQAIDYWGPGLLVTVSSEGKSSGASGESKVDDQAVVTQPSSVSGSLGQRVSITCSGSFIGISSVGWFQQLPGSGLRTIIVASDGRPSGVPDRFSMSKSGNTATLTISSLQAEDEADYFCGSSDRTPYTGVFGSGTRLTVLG — recorded pKd = 9.77

Entry CC7 scAb (scFv, not shown: small tags and cut ends, scAb) scFv: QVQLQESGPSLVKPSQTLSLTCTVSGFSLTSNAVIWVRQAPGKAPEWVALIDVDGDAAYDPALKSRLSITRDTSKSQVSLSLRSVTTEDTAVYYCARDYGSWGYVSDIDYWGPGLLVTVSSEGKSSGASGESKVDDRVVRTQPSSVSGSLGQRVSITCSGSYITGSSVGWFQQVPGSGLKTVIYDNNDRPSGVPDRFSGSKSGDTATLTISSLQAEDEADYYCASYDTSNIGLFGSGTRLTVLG — recorded pKd = 8.91

Provenance of the data: patent US20250355001A1
